Readings of inhibition at 1 µM for the listed compounds
target: IL-8 (Homo sapiens); assay: Biacore biosensor: inhibition of IL-8 binding to immobilised heparin and heparan sulfate; details: immobilised heparin; inhibitor 1.0 μM, IL-8 0.068 μM; read-out: Inhibition of binding of IL-8 (Hep)
Sequence (P10145 21-99, species assumed): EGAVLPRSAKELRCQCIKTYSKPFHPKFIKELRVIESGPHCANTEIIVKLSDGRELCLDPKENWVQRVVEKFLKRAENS
Use % as the unit, but write only the number.

O=S(=O)(O)OC(CN([C@H]1C=C[C@@H](OS(=O)(=O)O)[C@@H](OS(=O)(=O)O)[C@@H]1OS(=O)(=O)O)[C@H]1C=C[C@@H](OS(=O)(=O)O)[C@@H](OS(=O)(=O)O)[C@@H]1OS(=O)(=O)O)CN([C@H]1C=C[C@@H](OS(=O)(=O)O)[C@@H](OS(=O)(=O)O)[C@@H]1OS(=O)(=O)O)[C@H]1C=C[C@@H](OS(=O)(=O)O)[C@@H](OS(=O)(=O)O)[C@@H]1OS(=O)(=O)O = 52

Notebook: `O=S(=O)(O)O[C@H]1[C@H](OS(=O)(=O)O)[C@@H](N(CCCN([C@H]2C=C[C@@H](OS(=O)(=O)O)[C@@H](OS(=O)(=O)O)[C@@H]2OS(=O)(=O)O)[C@H]2C=C[C@@H](OS(=O)(=O)O)[C@@H](OS(=O)(=O)O)[C@@H]2OS(=O)(=O)O)[C@H]2C=C[C@@H](OS(=O)(=O)O)[C@@H](OS(=O)(=O)O)[C@@H]2OS(=O)(=O)O)C=C[C@H]1OS(=O)(=O)O` , inhibition at 1 µM read as 48
